I'd appreciate it if you could supply IC50 values for the items below.
System tested: recombinant human renin (Homo sapiens (Human))
Sequence (P00797 67-406): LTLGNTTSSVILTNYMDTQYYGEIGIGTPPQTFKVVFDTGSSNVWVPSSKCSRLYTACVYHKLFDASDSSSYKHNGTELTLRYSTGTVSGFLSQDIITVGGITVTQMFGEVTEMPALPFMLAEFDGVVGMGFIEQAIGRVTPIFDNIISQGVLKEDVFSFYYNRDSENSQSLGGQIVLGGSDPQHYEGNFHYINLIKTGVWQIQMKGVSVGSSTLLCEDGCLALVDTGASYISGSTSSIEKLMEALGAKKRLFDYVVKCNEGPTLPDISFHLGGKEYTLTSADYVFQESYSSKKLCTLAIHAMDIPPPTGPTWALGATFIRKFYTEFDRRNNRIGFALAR
Assay: Renin inhibitory activity in vitro, FRET assay (item 2)
Condition details: recombinant human renin 0.5 nM, 2 h at 37° C., pH 7.4, peptide substrate 4 μM
Quick note: unit goes after the number.

For each of the items listed, what is its IC50?
1. CCOC[C@@H](CC(C)C)NC(=O)[C@@H]1CNC[C@H](C(=O)N(c2cc(OC)c(C(C)C)cn2)C2CC2)[C@@H]1O
2. CCOC[C@@H](CC(C)C)NC(=O)[C@@H]1CNC[C@H](C(=O)N(c2cc(OCC)c(CC)cn2)C2CC2)[C@@H]1O

1. 0.8 nM
2. 0.3 nM

###

System tested: recombinant human renin (Homo sapiens (Human))
Assay: Renin inhibitory activity in vitro, FRET assay (item 2)
Condition details: recombinant human renin 0.5 nM, 2 h at 37° C., pH 7.4, peptide substrate 4 μM
Assay endpoint: IC50 (nM)
Answers are plain numbers, in nM.

Compound	Assay endpoint	Units of measure	Quantitative result
CCOC[C@H](NC(=O)[C@@H]1CNC[C@H](C(=O)N(c2ccc(C(C)C)cn2)C2CC2)[C@@H]1O)C(C)C [Example 16]	IC50	nM	2.5
CCOC[C@H](NC(=O)[C@@H]1CNC[C@H](C(=O)N(c2cc(OCC)c(CC)cn2)C2CC2)[C@@H]1O)C(C)C [Example 18]	IC50	nM	0.6
COC[C@H]1CC[C@H](NC(=O)[C@@H]2CNC[C@H](C(=O)N(c3cc(OC)c(C(C)C)cn3)C3CC3)[C@@H]2O)CC1 [Example 17]	IC50	nM	9
CCOC[C@@H](CC(C)C)NC(=O)[C@@H]1CNC[C@H](C(=O)N(c2ccc(C(C)C)cn2)C2CC2)C1 [Example 1]	IC50	nM	0.9
CCOC[C@@H](CC(C)C)NC(=O)[C@@H]1CNC[C@H](C(=O)N(CC(C)C)c2cc(OCCCO)c(C(C)C)cn2)[C@@H]1O [Example 15]	IC50	nM	6
CCOC[C@@H](NC(=O)[C@@H]1CNC[C@H](C(=O)N(c2ccc(C(C)C)cn2)C2CC2)C1)C1CCCCC1 [Example 2]	IC50	nM	3

Turning now to a further record.
Query IC50 for CCOC[C@@H](CC(C)C)NC(=O)[C@@H]1CNC[C@H](C(=O)N(CC(C)C)c2cc(OCCCOC)c(C(C)C)cn2)C1 [Example 3]
0.6
